For reference, Ki measured on Androgen receptor (Rattus norvegicus):
Supply the numeric figure in nM, leaving out any unit text.

# value lookup — system Androgen receptor (Rattus norvegicus), readout Ki, item C[C@@](O)(CSc1ccc(NC(=O)CCl)cc1)C(=O)Nc1ccc([N+](=O)[O-])c(C(F)(F)F)c1 97.7

Another compound to look at: C[C@](O)(CSc1ccccc1)C(=O)Nc1ccc2c(C(F)(F)F)cc(=O)oc2c1 132

Subsequent entry: C[C@](O)(CSc1ccc(N=C=S)cc1)C(=O)Nc1ccc2c(C(F)(F)F)cc(=O)oc2c1 135

Kindly consider the entry below.
Tell me reported Ki for CC(=O)Nc1ccc(SC[C@@](C)(O)C(=O)Nc2ccc([N+](=O)[O-])c(C(F)(F)F)c2)cc1 , tested with Androgen receptor (Rattus norvegicus). 123

The measurements presented in this section are drawn from ChEMBL document CHEMBL1142681.
